tested on: CAKI-1 renal; assay: NCI tumour cell line growth inhibition, 48 h; in the data active = GI50 below about 0.43 µM; inactive = the rest
API: response.call in 1.0 = active, 0.0 = inactive

[
  {
    "smiles-code": "C[C@H]1COCCN1c1nc(-c2cnc(N)cc2C(F)F)nc(N2CCOCC2)n1",
    "assigned-label": 1.0
  },
  {
    "smiles-code": "COC(=O)c1ccc(NC(=O)c2ccc(NC3=C(Cl)C(=O)N(Cc4ccccc4)C3=O)cc2)cc1",
    "assigned-label": 0.0
  },
  {
    "smiles-code": "O=C1c2ccn(CCCNC(CO)(CO)CO)c2C(=O)c2c1c(O)c1ccccc1c2O",
    "assigned-label": 0.0
  }
]

// switching to the query molecule
## Input Write down the call the test reported for this molecule. Item: O=C(N=Nc1c(Cl)c(O)c2ccccc2c1O)C(=O)Nc1cccc(C(F)(F)F)c1
## Output 0.0

* * *

system: CCRF-CEM leukemia; experiment: NCI tumour cell line growth inhibition, 48 h
TGI values, listed per item

Some compounds with known TGI results, for comparison:
[
  {
    "compound": "CN(C)c1cc2c(Nc3ccc4c(cnn4Cc4ccccc4)c3)ncnc2cn1",
    "TGI": "> 25 µM"
  },
  {
    "compound": "CCCCSc1nc(N)c2cn[nH]c2n1",
    "TGI": "68 µM"
  },
  {
    "compound": "CN1C(=O)[C@H](c2c[nH]c3ccccc23)[C@H](c2c[nH]c3ccccc23)C1=O",
    "TGI": "87 µM"
  }
]

Memo: O=c1oc2ccccc2c(O)c1C(c1cccc(C(c2c(O)c3ccccc3oc2=O)c2c(O)c3ccccc3oc2=O)c1)c1c(O)c2ccccc2oc1=O , reported TGI: 69.3 µM

Memo: Nc1n[nH]c2c(C(=O)Nc3ccc(Cl)cc3)c(N)n(N)c(=O)c12 , reported TGI: > 100 µM

Memo: Cc1c(NC(=O)CSC(=S)N(C)C)c(=O)n(-c2ccccc2)n1C , reported TGI: > 100 µM

Memo: O=C(COC(=O)c1cccc2c(=O)c3ccccc3[nH]c12)Nc1ccc(Cl)cc1 , reported TGI: > 100 µM

Memo: O=C(Nc1ccc([N+](=O)[O-])cc1[N+](=O)[O-])C(=O)C(C(=O)c1ccc(Cl)c(Cl)c1)C1OC(=O)c2ccccc21 (configuration not stated) , reported TGI: 95 µM

Memo: C[C@H]1COCCN1c1nc(-c2cnc(N)cc2C(F)F)nc(N2CCOCC2)n1 , reported TGI: > 50.3 µM

Memo: CN(C)C(=S)/N=c1\ssc(=S)n1Cc1ccco1 , reported TGI: 42.3 µM

Memo: CC(C)(C)[Si](C)(C)OCCc1ccccc1C1CC2(S(=O)(=O)c3ccccc3)ON1CC2S(=O)(=O)c1ccccc1 (configuration not stated) , reported TGI: > 100 µM

Memo: CCC[n+]1cc2cc3c(cc2c2c1-c1cc4c(cc1C2)OCO4)OCO3 (tested in a mixture with another compound) , reported TGI: 15 µM

* * *

TGI values, listed per item
test system: T-47D breast; experiment: NCI tumour cell line growth inhibition, 48 h

[
  {
    "compound": "CC1CC(=NC2CCCCC2)Nc2ccccc2N1Cc1ccccc1 (stereo not given)",
    "TGI": "20.7 µM"
  },
  {
    "compound": "Cc1ccc2c(=O)c(-c3nnc(NC4CCCCC4)s3)c[nH]c2n1",
    "TGI": "> 100 µM"
  }
]

Memo: NC(Cc1cccnn1)C(=O)O (stereo not given) , reported TGI: > 100 µM

* * *

tested on: RXF-631 renal; experiment: NCI tumour cell line growth inhibition, 48 h
TGI values, listed per item
Report the value in µM with no unit label.

[
  {
    "compound": "Cc1cc(Cl)ccc1N=C1NC(=O)C(CC(=O)Nc2cccc(C)c2C)S1 (stereo not given)",
    "scale-unit": "µM",
    "TGI": 84.3
  }
]

Memo: CCOC(=O)/C(C#N)=C\Sc1ccccc1 , reported TGI: 53.2

* * *

tested on: HCT-15 colon; experiment: NCI tumour cell line growth inhibition, 48 h; in the data active = GI50 below about 0.43 µM; inactive = the rest
API: response.call in true (1) (active), false (0) (inactive)

[
  {
    "molecule": "C=C1C(=O)O[C@H]2[C@H]1CC/C(COC(=O)CCCCCCCC(=O)OC/C1=C/CC[C@@]3(C)O[C@H]3[C@H]3OC(=O)C(=C)[C@@H]3CC1)=C\\CC[C@@]1(C)O[C@@H]21",
    "assigned-label": "false (0)"
  },
  {
    "molecule": "CC(=O)CCc1ccc(Oc2c3c(nc4ccccc24)OCC3)cc1",
    "assigned-label": "false (0)"
  },
  {
    "molecule": "CCn1cc(C(=O)N/N=C/c2cccs2)c(=O)c2cc(F)c(N3CCNC(C)C3)c(F)c21 (stereo not drawn)",
    "assigned-label": "false (0)"
  },
  {
    "molecule": "Cc1cc(Cl)nc(N(CCCNc2ccnc3cc(Cl)ccc23)Cc2cccs2)n1",
    "assigned-label": "false (0)"
  },
  {
    "molecule": "c1cc(C2CCCCC2)ccc1-c1cnc2nonc2n1",
    "assigned-label": "false (0)"
  },
  {
    "molecule": "[Cl][Hg][c]1ccc2ccccc2c1",
    "assigned-label": "false (0)"
  },
  {
    "molecule": "C[C@H]1COCCN1c1nc(-c2cnc(N)cc2C(F)F)nc(N2CCOCC2)n1",
    "assigned-label": "true (1)"
  }
]

// switching to the query molecule
## Input Write down the call the test reported for this molecule. Item: O=C(N/N=C/c1cc(Cl)ccc1O)c1ccccc1Nc1ccnc(C(F)(F)F)c1
## Output true (1)

* * *

system: SNB-19 CNS; experiment: NCI tumour cell line growth inhibition, 48 h
result-type: TGI (µM)
Report the value in µM with no unit label.

Memo: NNC(=O)c1cc([N+](=O)[O-])ccc1NC(=O)C12CC3CC(CC(C3)C1)C2 , reported TGI: 21.4

Memo: Cc1ccc(-c2c3c(nn2-c2ccc(S(=O)(=O)NC(=O)NC4CCCCC4)cc2)-c2ccccc2C3)cc1 , reported TGI: 49.7

Memo: N#Cc1c(N)nc(SCc2ccccc2)c(C#N)c1-c1ccc(O)cc1 , reported TGI: 41.6

Memo: COc1cc2c3cc1Oc1c(OC)c(OC)cc4c1[C@@H](Cc1ccc(O)c(c1)Oc1ccc(cc1)C[C@@H]3N(C)CC2)N(C)CC4 , reported TGI: 45.3

Memo: COc1cc2c(NC3CCN(C(C)C)CC3)nc(C3CCCCC3)nc2cc1OCCCN1CCCC1 , reported TGI: 30.3

Memo: OC(CN1CCCC2CCCCC21)c1cc2ccccc2c2ccccc12 (configuration not stated) , reported TGI: 15.1

Memo: O=C(OCc1ccccc1)c1ccc(NCc2cc(O)ccc2O)cc1 , reported TGI: 10.8

Memo: O=C1C=C(NCC(c2ccccc2)c2ccccc2)C(=O)c2ncccc21 , reported TGI: 9.62

Memo: N#C/C(=C\c1ccc([N+](=O)[O-])o1)c1n[nH]c(Cc2ccccc2)n1 , reported TGI: 17.3

Memo: CCC[n+]1cc2cc3c(cc2c2c1-c1cc4c(cc1C2)OCO4)OCO3 (tested in a mixture with another compound) , reported TGI: 2.18

Memo: C[C@]12CC(C=O)C(=O)C(O)=C1CC[C@@H]1C2CC[C@@]2(C)C1CC[C@]2(C)O (some centres not stated) , reported TGI: 63.5

Memo: CCCCCCCCCC(=O)NC(CCC(=O)N(CCNC(=O)c1nc(-c2ccccc2)oc1-c1ccccc1)Cc1ccccc1)C(=O)O (configuration not stated) , reported TGI: 31.8

Memo: COC(=O)c1ccc(NC(=O)c2ccc(NC3=C(Cl)C(=O)N(Cc4ccccc4)C3=O)cc2)cc1 , reported TGI: 30.4

Memo: CC(=O)c1ccc2c3c1[C@H]1O[C@H]1c1cccc(c1-3)[C@@H]1O[C@H]21 , reported TGI: 13.1

* * *

tested on: NCI-H226 lung; experiment: NCI tumour cell line growth inhibition, 48 h
result-type: TGI

Some compounds with known TGI results, for comparison:
[
  {
    "compound": "CCCCCCCCC(C)CCCCCCCCC(=O)OCC(COP(=O)([O-])OCC[N+](C)(C)C)OC(=O)CCCCCCCCC(C)CCCCCCCC (stereo not drawn)",
    "TGI": "> 100 µM"
  },
  {
    "compound": "CNCC(=O)NC(CO)C(=O)NC(CO)C(=O)NC1C(C(N)=O)OC(n2ccc(N)nc2=O)C(O)C1O (stereo not drawn)",
    "TGI": "13.9 µg/mL"
  }
]

Now for the compound whose TGI we want.
Memo: CCO[C@@]12CCC3CC4CC[C@@](OCC)(O1)C4C32 (stereo partly drawn) , reported TGI: > 100 µM

* * *

test system: NCI-H23 lung; test: NCI tumour cell line growth inhibition, 48 h
result-type: TGI (µM)
Report the value in µM with no unit label.

Some molecules with known TGI results, for comparison:
[
  {
    "molecule": "C[C@]12CC(C=O)C(=O)C(O)=C1CC[C@@H]1C2CC[C@@]2(C)C1CC[C@]2(C)O (some centres not stated)",
    "test-target": "NCI-H23 lung",
    "result-type": "TGI",
    "scale-unit": "µM",
    "recorded-value": 46.4
  },
  {
    "molecule": "CC1(C)N=C(c2ccccc2)SC12S[C@@H]1CCCC[C@H]1S2",
    "test-target": "NCI-H23 lung",
    "result-type": "TGI",
    "scale-unit": "µM",
    "recorded-value": 31.3
  },
  {
    "molecule": "Cc1ccc(-c2c3c(nn2-c2ccc(S(=O)(=O)NC(=O)NC4CCCCC4)cc2)-c2ccccc2C3)cc1",
    "test-target": "NCI-H23 lung",
    "result-type": "TGI",
    "scale-unit": "µM",
    "recorded-value": 27.1
  },
  {
    "molecule": "O=C1C(Cl)=C(Nc2cc(Cl)ccc2O)C(=O)N1Cc1ccccc1",
    "test-target": "NCI-H23 lung",
    "result-type": "TGI",
    "scale-unit": "µM",
    "recorded-value": 31.5
  },
  {
    "molecule": "CC(C)(C)C1=CC(=C2C=Cc3cc(O)ccc3O2)C=C(C(C)(C)C)C1=O",
    "test-target": "NCI-H23 lung",
    "result-type": "TGI",
    "scale-unit": "µM",
    "recorded-value": 3.58
  }
]

Memo: C=CC(=O)Nc1ccccc1CC(c1c[nH]c2ccccc12)c1c[nH]c2ccccc12 , reported TGI: 38.2

Memo: CC1CC(=NC2CCCCC2)Nc2ccccc2N1Cc1ccccc1 (configuration not stated) , reported TGI: 22.3

Memo: COc1cc2c(NC3CCN(C(C)C)CC3)nc(C3CCCCC3)nc2cc1OCCCN1CCCC1 , reported TGI: 25.5

Memo: O=C(COC(=O)c1cccc2c(=O)c3ccccc3[nH]c12)Nc1ccc(Cl)cc1 , reported TGI: 64.2

Memo: CCCCSc1nc(N)c2cn[nH]c2n1 , reported TGI: 30.9

Memo: COc1ccc(/C=C\c2cc(OC)c(OC)c(OC)c2)cc1OC(=O)CC(N)C(=O)O (configuration not stated) , reported TGI: 0.0465

Memo: COc1ccc(C[C@@H](C(=O)O[C@H](C)[C@H](NC(=O)[C@@H](CC(C)C)N(C)C(=O)C2CCCN2C(=O)[C@H](C)O)C(=O)N2CCCCNC(=O)[C@@H](C)C(=O)[C@H](C(C)C)OC(=O)C[C@H](O)[C@H]2CC(C)C)N(C)C(C)=O)cc1 (some centres not stated) , reported TGI: 42.5

Memo: C[C@H](c1ccccc1)n1c(N)c(-c2nc3ccccc3s2)c2ccc([N+](=O)[O-])cc2c1=O , reported TGI: 6.66

Memo: N#C/C(=C\c1ccc([N+](=O)[O-])o1)c1n[nH]c(Cc2ccccc2)n1 , reported TGI: 2.89

Memo: C=C1C(=O)O[C@@H]2CC(CO)=C([C@@H](C)CCCO)[C@@H](OC(=O)/C(C)=C\C)[C@H]12 , reported TGI: 38.8

Every entry's value here was drawn from PubChem BioAssay (NCI).
